Cited source: paper PMC1184061

biological target: zif268 DBD E21N (RN) (UniProt P08046 331-420, E352N); assay: EMSA (Scatchard x QuMFRA); derived; 30 mM Tris-HCl pH 8.0, 50 mM NaCl, 0.1 mg/ml BSA, 3 mM DTT, 20 uM ZnSO4, 5 ug/ml poly(dI-dC), 1 h on ice; 10% polyacrylamide gel
Attribute: Ka

[
  {
    "binder": "Zif_4 (AG) (dsDNA) DNA 1: TCGAGGTCGACGGTATCGCGTGGGAGCTCCACTAGTTCTAGAGCGGCCGCCAC DNA 2: GTGGCGGCCGCTCTAGAACTAGTGGAGCTCCCACGCGATACCGTCGACCTCGA",
    "Ka": "105 10^6 M-1"
  },
  {
    "binder": "Zif_2 (CA) (dsDNA) DNA 1: TCGAGGTCGACGGTATCGCGTGGGCACTCCACTAGTTCTAGAGCGGCCGCCAC DNA 2: GTGGCGGCCGCTCTAGAACTAGTGGAGTGCCCACGCGATACCGTCGACCTCGA",
    "Ka": "30 10^6 M-1"
  },
  {
    "binder": "Zif_1 (CG) (dsDNA) DNA 1: TCGAGGTCGACGGTATCGCGTGGGCGCTCCACTAGTTCTAGAGCGGCCGCCAC DNA 2: GTGGCGGCCGCTCTAGAACTAGTGGAGCGCCCACGCGATACCGTCGACCTCGA",
    "Ka": "81 10^6 M-1"
  }
]

Data point: Zif_6 (AC) (dsDNA) DNA 1: TCGAGGTCGACGGTATCGCGTGGGACCTCCACTAGTTCTAGAGCGGCCGCCAC DNA 2: GTGGCGGCCGCTCTAGAACTAGTGGAGGTCCCACGCGATACCGTCGACCTCGA ; Ka = 77 10^6 M-1

// recorded Ka for Zif_5 (AA) (dsDNA) DNA 1: TCGAGGTCGACGGTATCGCGTGGGAACTCCACTAGTTCTAGAGCGGCCGCCAC DNA 2: GTGGCGGCCGCTCTAGAACTAGTGGAGTTCCCACGCGATACCGTCGACCTCGA : 56 10^6 M-1
